For each of the variants below, state its abundance fitness.
B1: Chromodomain-helicase-DNA-binding protein 3, residues 374 to 426; numbered along this chain, Q12873 (parent)
chain: YETDHQDYCEVCQQGGEIILCDTCPRAYHLVCLDPELDRAPEGKWSCPHCEKE

variants of: B1; assay: abundance fitness (aPCA) (normalised: wild type 0, dead -1); higher = more abundant; growth selection in yeast, the domain comes from the species named; conditions: Homo sapiens
Give bare numbers.

VARIANT ANNOTATION: I19S
RECORDED NUMBER: -0.162
//
VARIANT ANNOTATION: C24V
RECORDED NUMBER: -1.08
//
VARIANT ANNOTATION: T3D
RECORDED NUMBER: -0.163
//
VARIANT ANNOTATION: P25I
RECORDED NUMBER: -0.261
//
VARIANT ANNOTATION: G16S
RECORDED NUMBER: 0.118
//
VARIANT ANNOTATION: T3I
RECORDED NUMBER: -0.035
//
VARIANT ANNOTATION: V31G
RECORDED NUMBER: -0.094
//
VARIANT ANNOTATION: L33M
RECORDED NUMBER: -0.148

Could you report abundance fitness for every entry in the following list?
1. D4V
2. P25W
3. L33N
4. G15C
5. C9Y

Result:
1. 0.166
2. -0.144
3. -0.326
4. -0.823
5. -0.74
